B1: Actin nucleation-promoting factor WAS (Homo sapiens), P42768 (parent)
chain: MSGGPMGGRPGGRGAPAVQQNIPSTLLQDHENQRLFEMLGRKCLTLATAVVQLYLALPPGAEHWTKEHCGAVCFVKDNPQKSYFIRLYGLQAGRLLWEQELYSQLVYSTPTPFFHTFAGDDCQAGLNFADEDEAQAFRALVQEKIQKRNQRQSGDRRQLPPPPTPANEERRGGLPPLPLHPGGDQGGPPVGPLSLGLATVDIQNPDITSSRYRGLPAPGPSPADKKRSGKKKISKADIGAPSGFKHVSHVGWDPQNGFDVNNLDPDLRSLFSRAGISEAQLTDAETSKLIYDFIEDQGGLEAVRQEMRRQEPLPPPPPPSRGGNQLPRPPIVGGNKGRSGPLPPVPLGIAPPPPTPRGPPPPGRGGPPPPPPPATGRSGPLPPPPPGAGGPPMPPPPPPPPPPPSSGNGPAPPPLPPALVPAGGLAPGGGRGALLDQIRQGIQLNKTPGAPESSALQPPPQSSEGLVGALMHVMQKRSRAIHSSDEGEDQAGDEDEDDEWDD

Variants of: B1
Details: with wipf1_human WIPF1, O43516
Sequence (O43516 whole entry): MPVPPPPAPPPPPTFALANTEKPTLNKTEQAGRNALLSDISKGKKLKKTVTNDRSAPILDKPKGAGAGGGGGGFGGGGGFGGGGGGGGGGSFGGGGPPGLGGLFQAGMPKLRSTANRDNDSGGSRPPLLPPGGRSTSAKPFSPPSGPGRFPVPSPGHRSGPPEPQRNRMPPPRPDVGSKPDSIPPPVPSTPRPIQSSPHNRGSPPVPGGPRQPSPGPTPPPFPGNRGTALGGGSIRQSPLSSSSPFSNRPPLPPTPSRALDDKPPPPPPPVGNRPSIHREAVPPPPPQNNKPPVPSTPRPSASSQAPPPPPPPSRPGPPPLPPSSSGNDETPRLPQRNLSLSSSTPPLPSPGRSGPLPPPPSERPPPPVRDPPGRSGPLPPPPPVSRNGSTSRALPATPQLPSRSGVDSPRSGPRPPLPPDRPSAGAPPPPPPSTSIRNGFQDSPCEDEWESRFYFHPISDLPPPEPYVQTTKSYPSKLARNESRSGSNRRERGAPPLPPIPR

| changes | effect of a mutation on the interaction |
| --- | --- |
| E31K | with no effect |
| I85T | with no effect |
| L35H | with no effect |
